Values from BindingDB's records for patent US20250382308

Quick list: pKd per entry.
# experimental system: Bromodomain-containing protein 4 [353-454] (Homo sapiens)
# Construct: 353-454
# protocol summary: Bromodomain Assay
The quantity pKd is defined as the negative base-10 logarithm of the molar concentration.

Input line: Could you tell me which pKd is on file for COc1cc(NC(=O)c2cc3c(nc2N2CCC(F)(F)C2)COC3)cc2c(C)cc(=O)[nH]c12 [US20250382308, Example 16] ?
Output line: 6.05

Input line: Could you tell me which pKd is on file for CCN(CC)c1nc2c(cc1C(=O)Nc1cc(OC)c3[nH]c(=O)cc(C)c3c1)COC2 [US20250382308, Example 27] ?
Output line: 6.22
